# concentration at 0 h annotations
assay: Phase 2 toxicokinetics of brincidofovir and cidofovir in plasma; format: in vivo, Sprague-Dawley CD rats; details: male, Sprague-Dawley CD, rat, plasma, intravenous, 1 mg/kg, plasma; brincidofovir 1 mg/kg 2-h IV infusion; male rats; Day 7; 0 h; BLQ imputed as zero; read-out: Imputed Concentration, individual animals
Report only the number, with the unit ng/mL understood.

| compound | unitDescriptor | concentration at 0 h |
| --- | --- | --- |
| Nc1ccn(C[C@@H](CO)OCP(=O)(O)O)c(=O)n1 [Cidofovir] | ng/mL | 0 |

Lab note: next compound to report on.
Suppose we examine the compound CCCCCCCCCCCCCCCCOCCCOP(=O)(O)CO[C@H](CO)Cn1ccc(N)nc1=O [Brincidofovir] ; what concentration at 0 h value has been reported?
0

----------
assay: Phase 2 toxicokinetics of brincidofovir and cidofovir in plasma; format: in vivo, Sprague-Dawley CD rats; conditions: female, Sprague-Dawley CD, rat, plasma, intravenous, 1 mg/kg, brincidofovir 1 mg/kg, Female, Day 1, 8 h; read-out: brincidofovir Imputed Mean Concentration (IMC)
assayMetric: concentration at 8 h
Please state the number and follow it with the unit.

Suppose we examine the compound CCCCCCCCCCCCCCCCOCCCOP(=O)(O)CO[C@H](CO)Cn1ccc(N)nc1=O [Brincidofovir] ; what concentration at 8 h value has been reported?
1.25 ng/mL

----------
test: IV BCV single ascending dose study: plasma BCV and CDV PK; assay type: in vivo, human; conditions: human, plasma, iv, 50 mg, plasma BCV, Cohort 4, BCV 50 mg 4 h IV infusion, n = 9; read-out: Vss
assayMetric: Vd (L)
Report only the number, with the unit L understood.

Suppose we examine the compound "CCCCCCCCCCCCCCCCOCCCOP(=O)(O)CO[C@H](CO)Cn1ccc(N)nc1=O" ; what Vd value has been reported?
10.8

----------
assay: IV BCV single ascending dose study: plasma BCV and CDV PK; assay type: in vivo, human; settings: human, plasma, iv, 25 mg, plasma BCV, Cohort 2, BCV 25 mg 2 h IV infusion, n = 6, geometric mean; read-out: Cmax
assayMetric: Cmax (ng/mL)
Report only the number, with the unit ng/mL understood.

Suppose we examine the molecule "CCCCCCCCCCCCCCCCOCCCOP(=O)(O)CO[C@H](CO)Cn1ccc(N)nc1=O" ; what Cmax value has been reported?
1410

----------
test: 28-day study toxicokinetics of brincidofovir and CDV in plasma; assay type: in vivo, Sprague-Dawley CD rats; settings: both sexes, Sprague-Dawley CD, rat, in vivo, 15 mg/kg, plasma brincidofovir, Day 29, 15 mg/kg, combined male and female rats, mean; read-out: Clast
assayMetric: concentration at 8 hr (ng/mL)
Report only the number, with the unit ng/mL understood.

Suppose we examine the molecule "CCCCCCCCCCCCCCCCOCCCOP(=O)(O)CO[C@H](CO)Cn1ccc(N)nc1=O" ; what concentration at 8 hr value has been reported?
10.9

----------
Test: Phase 2 toxicokinetics of brincidofovir and cidofovir in plasma
Assay type: in vivo, Sprague-Dawley CD rats
Conditions: female, Sprague-Dawley CD, rat, plasma, intravenous, 1 mg/kg, brincidofovir 1 mg/kg, Female, Day 1, 1 h; read-out: brincidofovir Mean Concentration (MC)
Experimental: Plasma samples (108) were collected 2 hours following the initiation of dosing on Day 1 and Day 7 (Group 1), or at 1, 2, 8, and 24 hours following the initiation of dosing on Day 1, and prior to administration and at 2, 8, and 24 hours following the initiation of dosing on Day 7 (Groups 2 and 3), and analyzed to determine the concentrations of brincidofovir and the metabolite, cidofovir), by LC/MS/MS. […]
assayMetric: concentration at 1 h
Please state the number and follow it with the unit.

Suppose we examine the molecule CCCCCCCCCCCCCCCCOCCCOP(=O)(O)CO[C@H](CO)Cn1ccc(N)nc1=O [Brincidofovir] ; what concentration at 1 h value has been reported?
137 ng/mL

----------
assay: Comparison of toxicity of orally and intravenously administered brincidofovir (rat intestine); type: in vivo; details: rat, in vivo; oral, single dose 100 mg/kg; read-out: Exposure Cmax
assayMetric: Cmax (ng/mL)
Report only the number, with the unit ng/mL understood.

Suppose we examine the molecule "CCCCCCCCCCCCCCCCOCCCOP(=O)(O)CO[C@H](CO)Cn1ccc(N)nc1=O" ; what Cmax value has been reported?
1090

----------
test: Phase 2 toxicokinetics of brincidofovir and cidofovir in plasma; assay type: in vivo, Sprague-Dawley CD rats; conditions: female, Sprague-Dawley CD, rat, plasma, iv, 1 mg/kg, brincidofovir in plasma; 1 mg/kg 2-hour IV infusion, Female rats, Day 7
assayMetric: AUC(0-t)
Please state the number and follow it with the unit.

Suppose we examine the compound CCCCCCCCCCCCCCCCOCCCOP(=O)(O)CO[C@H](CO)Cn1ccc(N)nc1=O [Brincidofovir] ; what AUC(0-t) value has been reported?
244 ng·h/mL

----------
assay: Phase 2 toxicokinetics of brincidofovir and cidofovir in plasma; type: in vivo, Sprague-Dawley CD rats; settings: female, Sprague-Dawley CD, rat, plasma, iv, 1 mg/kg, brincidofovir in plasma; 1 mg/kg 2-hour IV infusion, Female rats, Day 7
assayMetric: Cmax (µg/mL)
Report only the number, with the unit µg/mL understood.

Suppose we examine the molecule CCCCCCCCCCCCCCCCOCCCOP(=O)(O)CO[C@H](CO)Cn1ccc(N)nc1=O [Brincidofovir] ; what Cmax value has been reported?
0.0954

----------
assay: Comparison of toxicity of orally and intravenously administered brincidofovir (rat intestine); type: in vivo; conditions: Sprague-Dawley CD, rat, in vivo; IV, repeat dose 4 mg/kg; read-out: Exposure Cmax
assayMetric: Cmax (ng/mL)
Report only the number, with the unit ng/mL understood.

Suppose we examine the compound "CCCCCCCCCCCCCCCCOCCCOP(=O)(O)CO[C@H](CO)Cn1ccc(N)nc1=O" ; what Cmax value has been reported?
1200

----------
test: 28-day study toxicokinetics of brincidofovir and CDV in plasma; format: in vivo, Sprague-Dawley CD rats; details: both sexes, Sprague-Dawley CD, rat, in vivo, 1 mg/kg, plasma brincidofovir; Day 1; 1 mg/kg; combined male and female; Mean; read-out: Clast
assayMetric: concentration at 2 h (µg/mL)
Report only the number, with the unit µg/mL understood.

Suppose we examine the compound "CCCCCCCCCCCCCCCCOCCCOP(=O)(O)CO[C@H](CO)Cn1ccc(N)nc1=O" ; what concentration at 2 h value has been reported?
0.209

----------
test: Phase 2 toxicokinetics of brincidofovir and cidofovir in plasma; assay type: in vivo, Sprague-Dawley CD rats; conditions: male, Sprague-Dawley CD, rat, plasma, intravenous, 15 mg/kg, brincidofovir 15 mg/kg, Male, Day 7, 8 h; read-out: brincidofovir Imputed Mean Concentration (IMC)
assayMetric: concentration at 8 h
Please state the number and follow it with the unit.

Suppose we examine the compound CCCCCCCCCCCCCCCCOCCCOP(=O)(O)CO[C@H](CO)Cn1ccc(N)nc1=O [Brincidofovir] ; what concentration at 8 h value has been reported?
8.72 ng/mL

----------
Experiment: IV BCV single ascending dose study: plasma BCV and CDV PK
Format: in vivo, human
Settings: human, plasma, iv, 50 mg, plasma BCV, Cohort 3, BCV 50 mg 2 h IV infusion, n = 9, geometric mean; read-out: AUC∞
Experimental: Plasma PK samples were collected over 7 days and assayed by HPLC-MS. Plasma BCV PK parameters were determined by non-compartmental analysis and dose proportionality was assessed. Safety assessments were collected over 14 days.
assayMetric: AUC(0-inf) (ng·h/mL)
Report only the number, with the unit ng·h/mL understood.

Suppose we examine the compound "CCCCCCCCCCCCCCCCOCCCOP(=O)(O)CO[C@H](CO)Cn1ccc(N)nc1=O" ; what AUC(0-inf) value has been reported?
5950

----------
# concentration at 1 h annotations
experiment: Phase 2 toxicokinetics of brincidofovir and cidofovir in plasma; format: in vivo, Sprague-Dawley CD rats; settings: female, Sprague-Dawley CD, rat, plasma, intravenous, 1 mg/kg, plasma; brincidofovir 1 mg/kg 2-h IV infusion; female rats; Day 1; 1 h; BLQ imputed as zero; read-out: Imputed Concentration, individual animals
Report only the number, with the unit ng/mL understood.

| compoundSmiles | measuredValue |
| --- | --- |
| CCCCCCCCCCCCCCCCOCCCOP(=O)(O)CO[C@H](CO)Cn1ccc(N)nc1=O | 109 |

Lab note: next compound to report on.
Suppose we examine the compound "Nc1ccn(C[C@@H](CO)OCP(=O)(O)O)c(=O)n1" ; what concentration at 1 h value has been reported?
0

----------
assay: Phase 2 toxicokinetics of brincidofovir and cidofovir in plasma; type: in vivo, Sprague-Dawley CD rats; details: male, Sprague-Dawley CD, rat, plasma, iv, 15 mg/kg, brincidofovir in plasma; 15 mg/kg 2-hour IV infusion, Male rats, Day 7
assayMetric: Cmax (ng/mL)
Report only the number, with the unit ng/mL understood.

Suppose we examine the compound "CCCCCCCCCCCCCCCCOCCCOP(=O)(O)CO[C@H](CO)Cn1ccc(N)nc1=O" ; what Cmax value has been reported?
1910

----------
experiment: Plasma BCV PK following single dose oral tablet administration (Table 105); assay type: in vivo; conditions: human, plasma, po, 350 mg, 350 mg Oral Tablet, N = 70, geometric mean
assayMetric: AUC(0-inf) (ng·h/mL)
Report only the number, with the unit ng·h/mL understood.

Suppose we examine the molecule "CCCCCCCCCCCCCCCCOCCCOP(=O)(O)CO[C@H](CO)Cn1ccc(N)nc1=O" ; what AUC(0-inf) value has been reported?
6940
